Method description: NCI Yeast Anticancer Drug Screen. Data for the rad50 strain (AID 155);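 further: 0% = growth of vehicle-only cultures of the same strain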
Test context: S. cerevisiae rad50 strain growth inhibition; at 50.0 µM (retest, dose inferred, filed as 5.0); active compounds read high
This is part of a sample that, as a whole, favours compounds with a hit. Of some 79,000 tested, about 15% had one in any assay.
Recorded endpoint: growth inhibition (%)
Give the value in % but do not write % after it.

Would you kindly share the measured growth inhibition for C=CCC1=C(C)C(OC(=O)/C=C/c2ccccc2Cl)CC1=O (stereo not given) ?
81

// repeat for CCOc1ccc(C(=O)CCN2CCOCC2)cc1 and report
40

// repeat for CC(C)(S[S-])S[S-].[Ti].[c-]1[c-][c-][cH-][c-]1.[c-]1[c-][c-][cH-][c-]1 and report
97

// repeat for OC(C1CCCC1=N/N=C1/CCCC1C(O)(C(F)(F)Cl)C(F)(F)Cl)(C(F)(F)Cl)C(F)(F)Cl (stereo not given) and report
22

// repeat for Oc1ccccc1C1C=C(c2ccccc2)NC(N2CCCCC2)=C1c1nc2ccccc2[nH]1 (stereo not given) and report
-11

// repeat for O=[N+]([O-])c1nccn1CCCNCCCn1ccnc1[N+](=O)[O-] and report
28

// repeat for CN(C)CCCSc1c2ccccc2nc2cc(NCC(=O)Nc3ccccc3-c3ccccc3NC(=O)CNc3ccc4c(SCCCN(C)C)c5ccccc5nc4c3)ccc12 and report
98

// repeat for Cc1ccc(C2C(O)=C(c3ccccc3)Sc3ccc(C)cc32)cc1 (stereo not given) and report
33

// repeat for CCOC(=O)c1csc(=S)[nH]1 and report
83

// repeat for O=C(NO)Nc1nc(Cl)c(Cl)nc1Cl and report
97
